Each recorded value in this set is attributed to PubChem BioAssay (NCI).

Test system: UO-31 renal
Test: NCI-60 one-dose screen, 48 h (100 = growth as untreated, 0 = no growth, -100 = all killed)
Assay Context: 10 µM unless noted
About 83,000 compounds went through this panel and 20% of them were active in at least one assay; those are over-represented in the sample as a whole.
growth strictly less than 10% = met. Otherwise not met.

Bench note: check whether CCC1S/C(=N\N=C(/C)c2ccco2)N(c2ccccc2)C1=O (stereo unspecified) shows growth below 10%
not met

Bench note: check whether COc1cc2nc(C(=O)N3CCCCC3)cc(Nc3ccccc3)c2cc1OC shows growth below 10%
not met

Bench note: check whether CN(C)CCNc1nc2ccccc2c2c(=O)c3ccccc3sc12 shows growth below 10%
not met

Bench note: check whether CC(C)(C)OC(=O)N1CCN(CCn2cc(C(F)(F)F)c3c(Cl)ncnc32)CC1 shows growth below 10%
met

Bench note: check whether CNCCCOc1c(Br)cc(CCNC(=O)/C(Cc2cc(Br)c(OC)c(Br)c2)=N/O)cc1Br shows growth below 10%
met

Bench note: check whether NCC(=O)NS(=O)(=O)OC[C@H]1O[C@@H](n2cnc3c(N)ncnc32)[C@H](O)[C@@H]1O shows growth below 10%
met

Bench note: check whether O=C(N/N=C/c1ccccc1O)c1ccccc1O shows growth below 10%
met

Bench note: check whether O=C(CSc1nnc(-c2ccccc2)o1)Nc1ccc(C(=O)/C=C/c2ccccc2)cc1 shows growth below 10%
not met

Bench note: check whether CC(C(=O)O)N1C(N)=NNC1c1ccccc1O (stereo unspecified) shows growth below 10%
not met

Bench note: check whether COc1ccc(C2CC(c3cc(Cl)c(C)cc3OC)=NN2c2ccc(S(N)(=O)=O)cc2)cc1OC (stereo unspecified) shows growth below 10%
not met

Bench note: check whether O=C(O)c1ccc2nc(-c3ccc(OCCCCCOc4ccc(-c5nc6ccc(C(=O)O)cc6[nH]5)cc4)cc3)[nH]c2c1 shows growth below 10%
not met

Bench note: check whether CC(C)CCC[C@@H](C)[C@H]1CC[C@H]2[C@@H]3CC=C4N(c5ccccc5)C(=O)CC[C@]4(C)[C@H]3CC[C@]12C shows growth below 10%
not met

Bench note: check whether CC(C)C(=O)Nc1nc2c(s1)CCCc1ccn(S(=O)(=O)c3ccccc3)c1-2 shows growth below 10%
not met

Bench note: check whether CCOC(=O)C1=C(N)Oc2cc(OC)ccc2C1c1ccc(F)c(F)c1 (stereo unspecified) shows growth below 10%
not met

Bench note: check whether CCCCOc1nc2ccc(Cl)cc2cc1/C=C/C(=O)/C=C/c1ccc(OC)cc1 shows growth below 10%
not met

Bench note: check whether O=C1c2ccccc2C(=O)c2c(NCCN=Cc3c(O)ccc4ccccc34)cccc21 shows growth below 10%
not met

###

Tested on: RPMI-8226 leukemia
Test: NCI-60 one-dose screen, 48 h (100 = growth as untreated, 0 = no growth, -100 = all killed)
Assay Context: 10 µM unless noted
About 83,000 compounds went through this panel and 20% of them were active in at least one assay; those are over-represented in the sample as a whole.
Quantity Measured: growth (%)
Response body: numeric value in %, unit text excluded.

growth measured on COc1ccc(C2=NN(C(=O)COc3ccc(Cl)cc3)C(O)(c3cc(F)c(Cl)cc3Cl)C2)cc1 (stereo not drawn) = 80.9

growth measured on CCCCOc1nc2ccc(Cl)cc2cc1/C=C/C(=O)/C=C/c1ccc(Cl)cc1 = 0.229

growth measured on CCc1cccc(C)c1NC(=O)c1sc2nc3c(cc2c1N)CCCCC3 = 12.2

###

Test system: NCI-H23 lung
Test: NCI-60 one-dose screen, 48 h (100 = growth as untreated, 0 = no growth, -100 = all killed)
Assay Context: 10 µM unless noted
About 83,000 compounds went through this panel and 20% of them were active in at least one assay; those are over-represented in the sample as a whole. Calls of active or inactive are those of the source. How the source made its calls: active means growth percent below 10; inactive means the rest.
Kindly state growth for each of the entries shown.

growth measured on COc1ccc(-c2nn(-c3ccc(NC(=O)Nc4cc(C(F)(F)F)cc(C(F)(F)F)c4)cc3)cc2-c2ccncc2)cc1Cl = 8.51% (active)

growth measured on CN(C)CCCOc1c(Br)cc(/C=C/C(=O)N(C)CCc2cc(Br)c(OCCCN(C)C)c(Br)c2)cc1Br = 81.5% (inactive)

growth measured on COc1ccc(-c2nnc(NC(=O)CN3CCN(c4cc5c(cc4F)c(=O)c(C(=O)O)cn5C4CC4)CC3)s2)cc1OC = 96.3% (inactive)

growth measured on COc1ccc(/C=C2\CS(=O)(=O)C/C(=C\c3ccc(OC)cc3)C2=O)cc1 = -49.3% (active)

growth measured on C#C[C@@]1(O)[C@@H](CO)O[C@@H](n2cc(Br)c3c(Cl)ccnc32)[C@@H]1O = 31.9% (inactive)

growth measured on O=C(COc1ccc(Cl)cc1)N1CCN(Cc2ccc3c(c2)OCO3)CC1 = 89.8% (inactive)

growth measured on COc1ccc(NC(=O)Nc2ccc(-c3ccc(OC)c(OC)c3)nc2C)cc1 = 67.4% (inactive)

###

Tested on: MDA-MB-435 melanoma
Test: NCI-60 one-dose screen, 48 h (100 = growth as untreated, 0 = no growth, -100 = all killed)
Assay Context: 10 µM unless noted
About 83,000 compounds went through this panel and 20% of them were active in at least one assay; those are over-represented in the sample as a whole.
Kindly state growth for each of the entries shown.
Response body: numeric value in %, unit text excluded.

growth measured on COc1ccc(C2=NN(C(=O)COc3ccc(Cl)cc3)C(O)(c3cc(F)c(Cl)cc3Cl)C2)cc1 (stereo not drawn) = 91.7

growth measured on COc1ccc(/C=C2\CS(=O)(=O)C/C(=C\c3ccc(OC)cc3)C2=O)cc1 = -28.8

growth measured on CCN(CC)CCNCC(O)Cc1ccc(OC)cc1 (stereo not drawn) = 108

growth measured on COC(=O)c1oc2c(C(C)=O)c(OCCCN(C)C)ccc2c1C = 107

growth measured on Cc1ncc(CO)c(C(=O)O)c1O = 106

growth measured on COc1cc(Br)c(-c2nc(-c3ccccc3)c(-c3ccccc3)n2Cc2ccccc2)cc1OC = 59.8

growth measured on O=C(N/N=C/c1ccccc1O)c1ccccc1O = 63

growth measured on COc1ccc(Cl)cc1NC(=O)c1cc2c([nH]1)-c1nc(NC(=O)C(C)C)sc1CC2 = 114

growth measured on NS(=O)(=O)c1ccc(Nc2nc(O)c(/C=C3\C=Nc4ccccc43)s2)cc1 = 107

growth measured on N#CC1=C(N)Oc2c(ccc3ccccc23)C1c1cc(=O)oc2ccc(Cl)cc12 (stereo not drawn) = -43.2

growth measured on CSc1nc(N)nc2c1ncn2C = 102

growth measured on Cc1cccc(CC(=O)c2ccccc2)n1 = 99

growth measured on Nc1nc(Cl)cc(NCc2ccc(CNc3cc(Cl)nc(N)n3)cc2)n1 = 106

growth measured on COc1cc(/C=C2/Oc3cc4occc4c(OC)c3C2=O)ccc1OCC(=O)Nc1ccncc1 = 112

growth measured on Cc1ccccc1C[P+](c1ccccc1)(c1ccccc1)c1ccccc1 = 14.6

growth measured on COc1ccc(-c2nnc(SCC(=O)Nc3ccc(C(=O)/C=C/c4ccc(Cl)cc4)cc3)o2)cc1OC = 81.1

growth measured on COc1ccc(Cl)cc1NC(=O)c1cc2c([nH]1)-c1nc(N)sc1CCC2 = 103

growth measured on CC(=O)Nc1ccc([I+]c2ccc([N+](=O)[O-])cc2)cc1 = 109

growth measured on CC(C)(C)NCC(O)COc1c(Br)c(Br)c(Br)c2c1OC(C)(C)C2 (stereo not drawn) = -68.6

growth measured on Cc1cc2nc(-c3c(N)ncc(C#N)c3-c3ccc(Cl)cc3)[nH]c2cc1C = 58

growth measured on Cc1c(C(C)(C)C)cc(C(C)(C)C)c2c1CN(C)CO2 = 113

growth measured on COc1cc(-c2nc(SCC(=O)Nc3ccc(C(C)=O)cc3)[nH]c(=O)c2C#N)cc(OC)c1OC = -46.1

growth measured on COc1cc(C(=O)N2CCN(C(=O)c3cc(OC)c(OCc4ccccc4)cc3N)CC2)c(N)cc1OCc1ccccc1 = 127

growth measured on COc1cc([C@@H]2c3cc4c(cc3C(OC3O[C@@H]5COC(C)O[C@H]5[C@H](O)[C@H]3O)C3COC(=O)[C@@H]32)OCO4)cc(OC)c1O (stereo partly drawn) = 50

growth measured on CC(C)(C)OC(=O)NCc1cccc(N=C=S)c1 = 51

growth measured on COc1ccc2c(c1)O/C(=C/c1ccc(OCC(=O)Nc3ccc(S(N)(=O)=O)cc3)cc1)C2=O = 103

growth measured on COc1ccc(-n2c(-c3ccc(NC(=O)CCCl)cc3)nnc2-c2cc(OC)c(OC)c(OC)c2)cc1 = 54.9

growth measured on CCOC(=O)c1noc2c1CCc1cn(Cc3cc(OC)cc(OC)c3)cc1-2 = 103

###

Kindly state growth for each of the entries shown.
Tested on: OVCAR-5 ovarian
Test: NCI-60 one-dose screen, 48 h (100 = growth as untreated, 0 = no growth, -100 = all killed)
Assay Context: 10 µM unless noted
This is part of a sample that, as a whole, favours compounds with a hit. Of some 83,000 tested, about 20% had one in any assay. Activity calls are given as the source filed them. Rule for the calls: active = growth percent below 10; inactive = the rest.

growth measured on COc1ccc2c(c1)nnc1c3cccnc3[nH]c21 = 36.1% (inactive)

growth measured on COc1cc(C(=O)C[n+]2ccccc2)ccc1OC(C)=O = 105% (inactive)

growth measured on COC1=C(OC)C(=O)C=CC1=O = 116% (inactive)

growth measured on Nc1nc2ccc(CNc3ccc(C(=O)NC(CC(=O)O)C(=O)O)cc3)cc2c(=O)[nH]1 (centres undefined) = 52.2% (inactive)
